- Test system: Bacillus subtilis
- experimentSummary: Antibacterial activity against Bacillus subtilis 168 assessed as reduction in bacterial growth incubated for 24 hrs by CLSI broth microdilution method
- Type: functional
- experimentalParameters: Bacillus subtilis, 168, 24 h, read-out: MIC
reportedMetric: MIC (mg/L)
Give bare numbers, in mg/L.

Previously resolved entries follow.
• [H]/N=C(\N/C(=N/[H])NCCCCCCNC(=N)NC(=N)Nc1ccc(Cl)cc1)Nc1ccc(Cl)cc1 = 2
• CCCCCCCCCCCCCC(=O)NCCC[N+](C)(C)Cc1ccccc1.[Cl-] = 8
• CCCCCCCCCC[N+](C)(C)CCCNC(=O)COc1c2cc(C(C)(C)C)cc1Sc1cc(C(C)(C)C)cc(c1OCC(=O)NCCC[N+](C)(C)CCCCCCCCCC)Sc1cc(C(C)(C)C)cc(c1OCC(=O)NCCC[N+](C)(C)CCCCCCCCCC)Sc1cc(C(C)(C)C)cc(c1OCC(=O)NCCC[N+](C)(C)CCCCCCCCCC)S2.[Cl-].[Cl-].[Cl-].[Cl-] = 4

Consider the record given below.
Given the entry `CCCCCCCC[N+](C)(C)CCCNC(=O)COc1c2cc(C(C)(C)C)cc1Sc1cc(C(C)(C)C)cc(c1OCC(=O)NCCC[N+](C)(C)CCCCCCCC)Sc1cc(C(C)(C)C)cc(c1OCC(=O)NCCC[N+](C)(C)CCCCCCCC)Sc1cc(C(C)(C)C)cc(c1OCC(=O)NCCC[N+](C)(C)CCCCCCCC)S2.[Cl-].[Cl-].[Cl-].[Cl-]` , report its measured MIC.
2
